// data source = patent US6448259B1

Collected melting point values appear next to each entry.
assay.metric: melting point

>>> df
                               sample_smiles         result
 0  COc1ccc(CNC(=O)c2c[nH]c3c(c2=O)CCCC3)c(F)c1  257 to 259 °C
 1        O=C(Nc1ccsc1)c1c[nH]c2c(c1=O)CCCC2  321 to 324 °C
 2   O=C(NCc1c(F)cccc1F)c1c[nH]c2c(c1=O)CCC2  294 to 295 °C
 3    O=C(Nc1ccc(F)cc1)c1c[nH]c2c(c1=O)CCCC2  324 to 326 °C
 4  O=C(NCc1cccc(Cl)c1)c1c[nH]c2c(c1=O)CCCC2  247 to 249 °C
 5    O=C(Nc1c(F)cccc1F)c1c[nH]c2c(c1=O)CCC2  297 °C (dec.)
 6  CCOc1ccc(CNC(=O)c2c[nH]c3c(c2=O)CCCC3)cc1  241 to 243 °C
 7    COc1ccccc1CNC(=O)c1c[nH]c2c(c1=O)CCCC2  217 to 219 °C
 8  CCCOc1ccc(CNC(=O)c2c[nH]c3c(c2=O)CCC3)c(F)c1  209 to 211 °C
 9   COc1ccnc(NC(=O)c2c[nH]c3c(c2=O)CCCC3)c1  312 °C (dec.)
10   COc1ccc(NC(=O)c2c[nH]c3c(c2=O)CCCC3)cc1  287 to 290 °C
11       O=C(NCc1ccccc1)c1c[nH]c2c(c1=O)CCC2  149 to 150 °C
12       O=C(Nc1cccnc1)c1c[nH]c2c(c1=O)CCCC2  308 °C (dec.)
13   O=C(NCc1ccc(F)cc1)c1c[nH]c2c(c1=O)CCCC2  278 to 280 °C
14         O=C(Nc1nccs1)c1c[nH]c2c(c1=O)CCC2  305 °C (dec.)
15   COc1cccc(CNC(=O)c2c[nH]c3c(c2=O)CCC3)c1  204 to 205 °C
16       O=C(Nc1nccs1)c1c[nH]c2c(c1=O)CCCCC2  301 °C (dec.)
17  COc1ccc(NC(=O)c2c[nH]c3c(c2=O)CCCCC3)cc1  240 to 242 °C
18  CC(C)Oc1ccc(CNC(=O)c2c[nH]c3c(c2=O)CCCC3)c(F)c1  197 to 200 °C
19  COc1ccc(CNC(=O)c2c[nH]c3c(c2=O)CCCCC3)cc1  203 to 205 °C
20   O=C(NCc1cccc(F)c1)c1c[nH]c2c(c1=O)CCCC2  267 to 270 °C
21  CCOc1ccc(CNC(=O)c2c[nH]c3c(c2=O)CCCC3)c(F)c1  178 to 181 °C
22     O=C(NCc1ccccc1F)c1c[nH]c2c(c1=O)CCCC2  206 to 208 °C
23  CC(C)Oc1ccc(CNC(=O)c2c[nH]c3c(c2=O)CCC3)c(F)c1  214 °C (dec.)
24      Cc1csc(NC(=O)c2c[nH]c3c(c2=O)CCC3)n1  304 to 305 °C
25       O=C(Nc1ccccc1F)c1c[nH]c2c(c1=O)CCC2  330 °C (dec.)
26       O=C(NCc1cccs1)c1c[nH]c2c(c1=O)CCCC2  245 to 248 °C
27     O=C(Nc1ccccc1Cl)c1c[nH]c2c(c1=O)CCCC2  339 to 341 °C
28          CCCCNC(=O)c1c[nH]c2c(c1=O)CCCCC2  138 to 143 °C
29      O=C(Nc1ccccc1F)c1c[nH]c2c(c1=O)CCCC2  241 to 244 °C
30     O=C(NCc1ccccc1)c1c[nH]c2c(c1=O)CCCCC2  224 to 226 °C
31    O=C(Nc1cccc(F)c1)c1c[nH]c2c(c1=O)CCCC2  319 to 320 °C
32    COc1ccc(NC(=O)c2c[nH]c3c(c2=O)CCC3)cc1  330 to 332 °C
33  CCOc1ccc(CNC(=O)c2c[nH]c3c(c2=O)CCC3)c(F)c1  217 to 219 °C
34        O=C(Nc1ccccc1)c1c[nH]c2c(c1=O)CCC2  295 to 296 °C
35   COc1cccc(NC(=O)c2c[nH]c3c(c2=O)CCCC3)c1  275 to 280 °C
36  O=C(NCc1ccc(Cl)cc1)c1c[nH]c2c(c1=O)CCCC2  283 to 285 °C
37    COc1cccc(NC(=O)c2c[nH]c3c(c2=O)CCC3)c1  320 °C (dec.)
38        O=C(Nc1ccccn1)c1c[nH]c2c(c1=O)CCC2  294 to 295 °C
39   O=C(NCc1cccc(O)c1)c1c[nH]c2c(c1=O)CCCC2  133 to 136 °C
40  O=C(Nc1ccc(OCCO)cc1)c1c[nH]c2c(c1=O)CCC2  220 to 222 °C
41  O=C(NCc1ccc2c(c1)OCO2)c1c[nH]c2c(c1=O)CCCC2  263 to 265 °C
42  COc1cccc(CNC(=O)c2c[nH]c3c(c2=O)CCCC3)c1  210 to 212 °C
43   Cc1ccc(CNC(=O)c2c[nH]c3c(c2=O)CCCC3)cc1  270 to 273 °C
44      O=C(NCc1ccccc1)c1c[nH]c2c(c1=O)CCCC2  257 to 259 °C
45   Cc1cccc(CNC(=O)c2c[nH]c3c(c2=O)CCCC3)c1  242 to 245 °C
46   COc1ccc(CNC(=O)c2c[nH]c3c(c2=O)CCC3)cc1  240 to 241 °C
47        O=C(Nc1nccs1)c1c[nH]c2c(c1=O)CCCC2  260 °C (dec.)
